Entries and their measured IC50 follow.
- study.system: E-selectin (Homo sapiens)
- Sequence (P16581 whole entry): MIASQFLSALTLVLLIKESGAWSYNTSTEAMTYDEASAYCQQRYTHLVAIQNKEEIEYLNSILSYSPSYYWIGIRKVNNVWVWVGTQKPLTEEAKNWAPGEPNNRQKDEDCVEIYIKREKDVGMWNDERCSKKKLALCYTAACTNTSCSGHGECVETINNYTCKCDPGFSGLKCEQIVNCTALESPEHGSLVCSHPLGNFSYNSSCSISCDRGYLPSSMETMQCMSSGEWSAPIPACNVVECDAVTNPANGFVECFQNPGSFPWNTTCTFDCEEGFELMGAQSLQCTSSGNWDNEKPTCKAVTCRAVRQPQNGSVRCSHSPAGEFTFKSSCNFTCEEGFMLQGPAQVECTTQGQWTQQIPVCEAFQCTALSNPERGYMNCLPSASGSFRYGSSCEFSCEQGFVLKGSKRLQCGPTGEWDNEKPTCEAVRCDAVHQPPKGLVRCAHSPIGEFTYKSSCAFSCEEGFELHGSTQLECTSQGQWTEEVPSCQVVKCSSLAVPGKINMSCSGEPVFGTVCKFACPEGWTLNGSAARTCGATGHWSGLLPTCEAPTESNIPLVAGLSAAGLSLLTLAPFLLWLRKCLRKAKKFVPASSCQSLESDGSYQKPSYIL
- protocol: In vitro inhibition of HL60 (human leukemia) cell binding to human recombinant e-selectin.
Number in mM, nothing else.

O=C(O)COc1ccc(-c2ccccc2O[C@H]2O[C@H](CO)[C@@H](O)[C@@H](O)[C@@H]2O)cc1 has a reported IC50 of 6.1

O=C(O)c1cccc(-c2ccccc2O[C@H]2O[C@H](CO)[C@@H](O)[C@@H](O)[C@@H]2O)c1 has a reported IC50 of 16

N#CCc1cccc(-c2ccccc2O[C@H]2O[C@H](CO)[C@@H](O)[C@@H](O)[C@@H]2O)c1 has a reported IC50 of 7

Cc1ccc(OCC(=O)O)cc1-c1ccccc1O[C@H]1O[C@H](CO)[C@@H](O)[C@@H](O)[C@@H]1O has a reported IC50 of 20.2

====

- study.system: L-selectin (Mus musculus) (UniProt P18337)
- protocol: In vitro inhibitory activity against sialyl Lewis X expressing HL60 cell binding to Selectin L at 6 mM concentration
- Assay type: cell-based
- condition.notes: HL-60
value.type: inhibition (%)
Number in %, nothing else.

O=C(O)CNC(=O)c1ccc(-c2ccccc2O[C@H]2O[C@H](CO)[C@@H](O)[C@@H](O)[C@@H]2O)cc1 | 0
O=C(O)C(Oc1cccc(-c2ccccc2O[C@H]2O[C@H](CO)[C@@H](O)[C@@H](O)[C@@H]2O)c1)c1ccccc1 (some centres not stated) | 0
CC(C(=O)O)c1cccc(-c2ccccc2O[C@H]2O[C@H](CO)[C@@H](O)[C@@H](O)[C@@H]2O)c1 (stereo in doubt; 9r) | 40
O=C(O)c1cccc(-c2ccccc2O[C@H]2O[C@H](CO)[C@@H](O)[C@@H](O)[C@@H]2O)c1 | 15
CC(C(=O)O)c1cccc(-c2ccccc2O[C@H]2O[C@H](CO)[C@@H](O)[C@@H](O)[C@@H]2O)c1 (stereo in doubt; 9s) | 0
O=C(O)Cc1ccc(-c2ccccc2O[C@H]2O[C@H](CO)[C@@H](O)[C@@H](O)[C@@H]2O)cc1 | 0

Consider now this further compound.
O=C(O)COCc1cccc(-c2ccccc2O[C@H]2O[C@H](CO)[C@@H](O)[C@@H](O)[C@@H]2O)c1 has a reported inhibition of 30

====

- study.system: P-selectin (Homo sapiens)
- protocol: In vitro inhibitory activity against sialyl Lewis X expressing HL60 cell binding Selectin P
value.type: IC50 (mM)
Number in mM, nothing else.

Please review the entries below; each comes with its answer.
O=C(O)Cc1cccc(-c2ccccc2O[C@H]2O[C@H](CO)[C@@H](O)[C@@H](O)[C@@H]2O)c1 | 2.6
CC(C(=O)O)c1cccc(-c2ccccc2O[C@H]2O[C@H](CO)[C@@H](O)[C@@H](O)[C@@H]2O)c1 (stereo in doubt; 9r) | 20

CCOP(=O)(O)CCCc1cccc(-c2ccccc2O[C@H]2O[C@H](CO)[C@@H](O)[C@@H](O)[C@@H]2O)c1 has a reported IC50 of 12.4

====

- study.system: UniProt:P16109
- protocol: In vitro inhibitory activity against sialyl Lewis X expressing HL60 cell binding Selectin P at 20 mM concentration
- Type: cell-based
- condition.notes: HL-60
Entries and their measured inhibition follow.
Number in %, nothing else.

Known value: UniProt:P16109 inhibition of the compound Cc1c(OCC(=O)O)cccc1-c1ccccc1O[C@H]1O[C@H](CO)[C@@H](O)[C@@H](O)[C@@H]1O equals 0

Known value: UniProt:P16109 inhibition of the compound O=C(O)CCC(=O)c1ccc(-c2ccccc2O[C@H]2O[C@H](CO)[C@@H](O)[C@@H](O)[C@@H]2O)cc1 equals 0

Known value: UniProt:P16109 inhibition of the compound O=C(O)C[C@@H](NC(=O)c1cccc(-c2ccccc2O[C@H]2O[C@H](CO)[C@@H](O)[C@@H](O)[C@@H]2O)c1)C(=O)O equals 40

Known value: UniProt:P16109 inhibition of the compound O=C(N[C@H](Cc1ccccc1)C(=O)O)c1cccc(-c2ccccc2O[C@H]2O[C@H](CO)[C@@H](O)[C@@H](O)[C@@H]2O)c1 equals 5

Known value: UniProt:P16109 inhibition of the compound O=C(N[C@@H](Cc1ccccc1)C(=O)O)c1ccc(-c2ccccc2O[C@H]2O[C@H](CO)[C@@H](O)[C@@H](O)[C@@H]2O)cc1 equals 0

Known value: UniProt:P16109 inhibition of the compound O=C(O)Cc1ccc(-c2ccccc2O[C@H]2O[C@H](CO)[C@@H](O)[C@@H](O)[C@@H]2O)cc1 equals 0

Known value: UniProt:P16109 inhibition of the compound O=C(O)c1ccc(-c2ccccc2O[C@H]2O[C@H](CO)[C@@H](O)[C@@H](O)[C@@H]2O)cc1 equals 0

Known value: UniProt:P16109 inhibition of the compound O=C(O)CNC(=O)c1ccc(-c2ccccc2O[C@H]2O[C@H](CO)[C@@H](O)[C@@H](O)[C@@H]2O)cc1 equals 0

====

- study.system: P-selectin (Homo sapiens)
- Sequence (P16109 whole entry): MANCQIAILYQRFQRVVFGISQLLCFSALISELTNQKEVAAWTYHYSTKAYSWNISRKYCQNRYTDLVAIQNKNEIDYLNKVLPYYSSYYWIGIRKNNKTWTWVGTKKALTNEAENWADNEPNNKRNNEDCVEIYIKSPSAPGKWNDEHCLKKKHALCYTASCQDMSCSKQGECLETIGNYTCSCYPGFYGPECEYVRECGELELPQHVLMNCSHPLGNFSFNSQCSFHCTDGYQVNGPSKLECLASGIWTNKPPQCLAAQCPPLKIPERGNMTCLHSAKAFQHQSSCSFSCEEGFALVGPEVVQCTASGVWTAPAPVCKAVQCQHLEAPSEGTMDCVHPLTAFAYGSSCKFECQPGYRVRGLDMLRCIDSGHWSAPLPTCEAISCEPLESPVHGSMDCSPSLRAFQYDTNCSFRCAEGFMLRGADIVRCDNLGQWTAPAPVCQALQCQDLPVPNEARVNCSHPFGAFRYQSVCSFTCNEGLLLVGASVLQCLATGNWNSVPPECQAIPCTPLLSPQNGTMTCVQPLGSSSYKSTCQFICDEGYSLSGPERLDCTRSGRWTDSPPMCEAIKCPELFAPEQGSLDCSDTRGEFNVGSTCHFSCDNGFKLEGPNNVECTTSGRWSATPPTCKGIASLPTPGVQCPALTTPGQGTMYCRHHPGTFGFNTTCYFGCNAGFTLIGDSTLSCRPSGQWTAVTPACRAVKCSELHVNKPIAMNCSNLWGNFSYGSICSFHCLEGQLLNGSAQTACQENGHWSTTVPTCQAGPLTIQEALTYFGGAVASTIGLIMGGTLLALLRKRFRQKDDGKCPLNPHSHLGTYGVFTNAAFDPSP
- protocol: In vitro inhibitory activity against sialyl Lewis X expressing HL60 cell binding Selectin P
Lab note - cut at 7 mM for IC50: label 1 if strictly below, label 0 if not.

O=C(O)C(Oc1cccc(-c2ccccc2O[C@H]2O[C@H](CO)[C@@H](O)[C@@H](O)[C@@H]2O)c1)c1ccccc1 (some centres not stated) | label 0

Req: API: query returns whether the molecule falls strictly under 7 mM in IC50. Query: O=C(O)CC(NC(=O)c1ccc(-c2ccccc2O[C@H]2O[C@H](CO)[C@@H](O)[C@@H](O)[C@@H]2O)cc1)C(=O)O (some centres not stated)
Resp: label 1

Req: API: query returns whether the molecule falls strictly under 7 mM in IC50. Query: CC(=O)N[C@H]1[C@H]([C@H](O)[C@H](O)CO)O[C@@](O[C@H]2[C@@H](O)[C@@H](CO)O[C@@H](O[C@@H]([C@H](O[C@@H]3O[C@@H](C)[C@@H](O)[C@@H](O)[C@@H]3O)[C@H](C=O)NC(C)=O)[C@H](O)CO)[C@@H]2O)(C(=O)O)C[C@@H]1O
Resp: label 1

Req: API: query returns whether the molecule falls strictly under 7 mM in IC50. Query: O=C(O)COc1cccc(-c2ccccc2O[C@H]2O[C@H](CO)[C@@H](O)[C@@H](O)[C@@H]2O)c1
Resp: label 1

Req: API: query returns whether the molecule falls strictly under 7 mM in IC50. Query: O=C(O)COc1ccc(-c2ccccc2O[C@H]2O[C@H](CO)[C@@H](O)[C@@H](O)[C@@H]2O)cc1
Resp: label 0

Req: API: query returns whether the molecule falls strictly under 7 mM in IC50. Query: Cc1ccc(OCC(=O)O)cc1-c1ccccc1O[C@H]1O[C@H](CO)[C@@H](O)[C@@H](O)[C@@H]1O
Resp: label 0

====

Entries and their measured IC50 follow.
- study.system: L-selectin (Mus musculus, UniProt P18337)
- Sequence (P18337 whole entry): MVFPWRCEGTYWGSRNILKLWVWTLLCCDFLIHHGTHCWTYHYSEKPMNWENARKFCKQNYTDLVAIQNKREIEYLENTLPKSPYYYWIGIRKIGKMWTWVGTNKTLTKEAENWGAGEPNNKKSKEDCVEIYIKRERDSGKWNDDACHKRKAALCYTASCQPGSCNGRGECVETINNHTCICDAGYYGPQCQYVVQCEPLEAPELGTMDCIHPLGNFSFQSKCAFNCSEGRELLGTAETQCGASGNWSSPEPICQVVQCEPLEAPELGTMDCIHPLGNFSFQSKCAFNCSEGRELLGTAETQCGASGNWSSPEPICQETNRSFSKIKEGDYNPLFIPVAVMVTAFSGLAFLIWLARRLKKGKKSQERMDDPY
- protocol: In vitro inhibitory activity against sialyl Lewis X expressing HL60 cell binding Selectin L
- Type: cell-based, HL-60
Number in µM, nothing else.

Please review the entries below; each comes with its answer.
O=C(O)COc1cccc(-c2ccccc2O[C@H]2O[C@H](CO)[C@@H](O)[C@@H](O)[C@@H]2O)c1 | 17000
O=C(O)Cc1cccc(-c2ccccc2O[C@H]2O[C@H](CO)[C@@H](O)[C@@H](O)[C@@H]2O)c1 | 1000
N#CCc1cccc(-c2ccccc2O[C@H]2O[C@H](CO)[C@@H](O)[C@@H](O)[C@@H]2O)c1 | 1500

Known value: L-selectin (Mus musculus, UniProt P18337) IC50 of the compound CC(=O)N[C@H]1[C@H]([C@H](O)[C@H](O)CO)O[C@@](O[C@H]2[C@@H](O)[C@@H](CO)O[C@@H](O[C@@H]([C@H](O[C@@H]3O[C@@H](C)[C@@H](O)[C@@H](O)[C@@H]3O)[C@H](C=O)NC(C)=O)[C@H](O)CO)[C@@H]2O)(C(=O)O)C[C@@H]1O equals 2000

Known value: L-selectin (Mus musculus, UniProt P18337) IC50 of the compound O=C(O)CC(NC(=O)c1ccc(-c2ccccc2O[C@H]2O[C@H](CO)[C@@H](O)[C@@H](O)[C@@H]2O)cc1)C(=O)O (stereo not given in full) equals 5000
